Assay: Toxicokinetics in the 28 day dog study of DIO-902 (with racemic ketoconazole group a)
Conditions: male, beagle, plasma, po, 20 mg/kg, Cmax, dogs, 20 mg/kg oral, day 1, M
readout: Cmax (ng/mL)
The reply should contain only the number, in ng/mL.

Look up Cmax of CC(=O)N1CCN(c2ccc(OC[C@@H]3CO[C@@](Cn4ccnc4)(c4ccc(Cl)cc4Cl)O3)cc2)CC1 [DIO-902] and report it.
9380

----------
Assay: Toxicokinetics in the 28 day dog study of DIO-902 (with racemic ketoconazole group a);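 further: beagle dogs dosed orally once daily within a 28-day GLP study, 3 animals per sex per group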
Details: male, beagle, plasma, po, 2 mg/kg, Drug concentration in plasma, dogs, 2 mg/kg oral, day 1, M, 1 h
readout: concentration at 1 h (ng/mL)
The reply should contain only the number, in ng/mL.

Look up concentration at 1 h of CC(=O)N1CCN(c2ccc(OC[C@@H]3CO[C@@](Cn4ccnc4)(c4ccc(Cl)cc4Cl)O3)cc2)CC1 [DIO-902] and report it.
400
